These measurements were taken from ChEMBL document CHEMBL1201862.

System: ACHN
Experiment Description: NCI tumour cell line growth inhibition, 48 h
The source made the active and inactive calls. Cut-off read from the data, not from the text of the source: active = GI50 up to about 1.1 µM and inactive = higher.
Readout Kind: GI50

Requested read-out: GI50. Entry: C/C(=N\N=C(/S)SCc1ccccc1)c1ccccn1
< 0.01 µM (active)

# query: GI50 of entry O=C(NCCCNCCN1C(=O)c2cccc3cc([N+](=O)[O-])cc(c23)C1=O)c1cc(-c2ccccc2)nc2ccccc12
0.991 µM (active)

Bench note: what GI50 did CCOC(=O)c1ccc2c(c1)Cc1cc([N+](=O)[O-])ccc1-2 show?
29.9 µM (inactive)

What GI50 value was documented for this molecule, C#Cc1c(C)c(/C=C/C(C)=C/C=C/C(C)=C/C(=O)OC)n(C)c1C ?
> 100 µM (inactive)

Recorded GI50 for CS(=O)(=O)c1nc(-c2cc3c(c(S(C)(=O)=O)n2)CCCC3)cc2c1CCCCC2 , please?
> 100 µM (inactive)

So what's the measured GI50 for this one? COC(=O)[C@@]1(C)CCC[C@]2(C(=O)O)C3Cc4occc4[C@H](C)[C@@H]3CCC21 (stereo partly specified)
44.2 µM (inactive)

Look up GI50: COCN1C(=O)[C@@H]2CCCN2C(=O)c2cc(OC)c(Cc3ccccc3)cc21
> 100 µM (inactive)

Would you mind telling me what GI50 value was observed for O=c1[nH]c(Nc2ccc(Br)c(C(F)(F)F)c2)nc2[nH]cnc12 ?
43.4 µM (inactive)

Look up GI50 for this molecule: COC(=O)/C=C1/OC(c2ccccc2)=C(Br)C1=O
46.8 µM (inactive)

Name the recorded GI50 for CC1=CC[C@@]2(C)CC[C@](O)(C(C)C)C2C(OC(=O)c2ccccc2)C1 (stereo partly specified) .
17.8 µM (inactive)

For the molecule shown here, CCOC(=O)c1ccc(-n2cnc(-c3ccc([N+](=O)[O-])cc3)c2)cc1 , give the reported GI50.
> 100 µM (inactive)

Entry Fc1cccc(C2SCc3nc4ccccc4n32)c1F (stereo unspecified) : reported GI50 = ?
48.5 µM (inactive)

Return reported GI50; argument: CCCCCCCC/C=C\CCCCCCCC(=O)NCCN(CCN)C(=O)CCCCCCC/C=C\CCCCCCCC
> 100 µM (inactive)

Give the measured GI50 of COc1ccc(C(C)NNC(=O)c2cc[n+]([BH2-]C#N)cc2)c(OC)c1 (stereo unspecified) .
> 100 µM (inactive)

Param item = O=C(c1ccc(Cl)cc1Cl)N(Cc1cccnc1)C(=S)N(Cc1cccnc1)C(=O)c1ccc(Cl)cc1Cl ; retrieve measured GI50.
9.62 µM (inactive)

Reported GI50 for Cc1cc(-c2cscn2)c(O)c([N+](=O)[O-])c1 : what is it?
37.2 µM (inactive)

Using the record for CCOC(=O)c1cnc(-n2[nH]c(C)c(CCO)c2=O)[nH]c1=O , report its GI50.
> 100 µM (inactive)

Would you mind telling me what GI50 value was observed for COc1c(O)cc(O)c2c(=O)cc(-c3ccccc3)oc12 [WOGONIN] ?
31.4 µM (inactive)

Reported GI50 for Cc1cccc(C(C)(C)C)c1NC(=O)CCc1nnc(S)[nH]1 : what is it?
> 100 µM (inactive)

Recorded GI50 for COCCNc1cncc(C(N)=O)c1 , please?
> 100 µM (inactive)

Quick check: GI50 of CCSCCCC(=O)O ?
> 100 µM (inactive)
